All figures here come from patent US5114918A.

Molecular target: endothelin receptor (membrane of smooth muscle tissue of porcine aorta) (Sus scrofa)
Construct: from tissue; host or cells: smooth muscle tissue of porcine aorta (membrane fraction)
Sequence (Q29010 21-427): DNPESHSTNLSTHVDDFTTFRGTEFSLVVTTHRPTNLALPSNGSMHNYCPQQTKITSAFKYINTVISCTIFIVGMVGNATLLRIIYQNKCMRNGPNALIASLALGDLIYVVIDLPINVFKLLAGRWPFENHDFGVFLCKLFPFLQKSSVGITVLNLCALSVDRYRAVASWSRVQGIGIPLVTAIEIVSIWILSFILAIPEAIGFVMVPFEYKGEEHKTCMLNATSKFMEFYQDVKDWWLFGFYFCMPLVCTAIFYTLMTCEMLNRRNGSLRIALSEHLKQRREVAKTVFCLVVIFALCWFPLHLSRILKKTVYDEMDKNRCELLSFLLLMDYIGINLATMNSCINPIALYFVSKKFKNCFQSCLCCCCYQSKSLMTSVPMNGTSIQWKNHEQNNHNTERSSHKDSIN
Test: Endothelin binding inhibition test (125I-endothelin-1, porcine aorta smooth muscle membrane)
Conditions: 1.1 μM of the test compound; porcine aorta smooth muscle membrane; 25° C, 4 hours; read-out: 125I-endothelin-1 binding inhibition, Inhibition (%)
Numbered stars: 1 amine (or outer) side, 2 acyl side, 3 side chain; on linkers, the order of the positions; unused ones are H or OH. Square brackets hold non-standard residues; d marks the D form. Peptide text beside a SMILES is read from it. Gly(N-CH2CH2-imidazol-4-yl) = O=C(O)CNCCc1c[nH]cn1; X5 = O=C([C@H](N[*:1])C1=CCC=CC1)[*:2]; X7 = O=C([C@H](N[*:1])c1ccco1)[*:2]; Nle = CCCC[C@H](N)C(=O)O; Orn = NCCC[C@H](N)C(=O)O; Aib = CC(C)(N)C(=O)O; Sar = CNCC(=O)O
ENDPOINT LABEL: inhibition at 1.1 µM (%)

[
  {
    "MOLECULE": "CC(C)C[C@@H]1NC(=O)[C@@H](C(C)C)NC(=O)CNC(=O)[C@@H](CC(=O)O)NC(=O)[C@@H](Cc2c[nH]c3ccccc23)NC1=O [Example 11, cyclo(-DTrp-DAsp-Gly-DVal-Leu-)] (cyclo(G[dV]L[dW][dD]))",
    "TARGET OR TEST SYSTEM": "endothelin receptor (membrane of smooth muscle tissue of porcine aorta) (Sus scrofa)",
    "MEASURED NUMBER": 74
  },
  {
    "MOLECULE": "CC(C)C[C@@H]1NC(=O)[C@@H](C(C)C)NC(=O)CN(CCc2c[nH]cn2)C(=O)[C@@H](CC(=O)O)NC(=O)[C@@H](Cc2c[nH]c3ccccc23)NC1=O [Example 85, cyclo(-DTrp-DAsp-IeGly-DVal-Leu-)] (cyclo(L[dW][dD][Gly(N-CH2CH2-imidazol-4-yl)][dV]))",
    "TARGET OR TEST SYSTEM": "endothelin receptor (membrane of smooth muscle tissue of porcine aorta) (Sus scrofa)",
    "MEASURED NUMBER": 82
  },
  {
    "MOLECULE": "CC(C)C[C@@H]1NC(=O)[C@@H](CC(C)C)NC(=O)[C@H](C)NC(=O)[C@@H](CC(=O)O)NC(=O)[C@@H](Cc2c[nH]c3ccccc23)NC1=O [Example 28, cyclo(-DTrp-DAsp-Ala-DLeu-Leu-)] (cyclo(A[dL]L[dW][dD]))",
    "TARGET OR TEST SYSTEM": "endothelin receptor (membrane of smooth muscle tissue of porcine aorta) (Sus scrofa)",
    "MEASURED NUMBER": 51
  },
  {
    "MOLECULE": "CC(C)C[C@@H]1NC(=O)[C@@H](C2=CCC=CC2)NC(=O)[C@@H]2CCCN2C(=O)[C@@H](CC(=O)O)NC(=O)[C@@H](Cc2c[nH]c3ccccc23)NC1=O [Example 74, cyclo(-DTrp-DAsp-Pro-DDpg-Leu-)] (cyclo(L[dW][dD]P[X5]))",
    "TARGET OR TEST SYSTEM": "endothelin receptor (membrane of smooth muscle tissue of porcine aorta) (Sus scrofa)",
    "MEASURED NUMBER": 89
  },
  {
    "MOLECULE": "CC(C)C[C@@H]1NC(=O)[C@@H](C(C)C)NC(=O)CN(C)C(=O)[C@@H](CC(=O)O)NC(=O)[C@@H](Cc2c[nH]c3ccccc23)NC1=O [Example 65, cyclo(-DTrp-DAsp-Sar-DVal-Leu-)] (cyclo(L[dW][dD][Sar][dV]))",
    "TARGET OR TEST SYSTEM": "endothelin receptor (membrane of smooth muscle tissue of porcine aorta) (Sus scrofa)",
    "MEASURED NUMBER": 85
  },
  {
    "MOLECULE": "CC(C)C[C@@H]1NC(=O)[C@@H](c2ccco2)NC(=O)[C@@H]2CCCN2C(=O)[C@@H](CC(=O)O)NC(=O)[C@@H](Cc2c[nH]c3ccccc23)NC1=O [Example 80, cyclo(-DTrp-DAsp-Pro-DFug-Leu-)] (cyclo(L[dW][dD]P[X7]))",
    "TARGET OR TEST SYSTEM": "endothelin receptor (membrane of smooth muscle tissue of porcine aorta) (Sus scrofa)",
    "MEASURED NUMBER": 83
  },
  {
    "MOLECULE": "CCCC[C@@H]1NC(=O)[C@@H](C(C)C)NC(=O)[C@H](CO)NC(=O)[C@@H](CC(=O)O)NC(=O)[C@@H](Cc2c[nH]c3ccccc23)NC1=O [Example 36, cyclo(-DTrp-DAsp-Ser-DVal-Nle-)] (cyclo([Nle][dW][dD]S[dV]))",
    "TARGET OR TEST SYSTEM": "endothelin receptor (membrane of smooth muscle tissue of porcine aorta) (Sus scrofa)",
    "MEASURED NUMBER": 67
  },
  {
    "MOLECULE": "CC(C)C[C@@H]1NC(=O)[C@@H](C(C)C)NC(=O)[C@@H]2CCCN2C(=O)[C@@H](CC(=O)O)NC(=O)[C@@H](Cc2c[nH]c3ccccc23)NC1=O [Example 15, cyclo(-DTrp-DAsp-Pro-DVal-Leu-)] (cyclo(L[dW][dD]P[dV]))",
    "TARGET OR TEST SYSTEM": "endothelin receptor (membrane of smooth muscle tissue of porcine aorta) (Sus scrofa)",
    "MEASURED NUMBER": 85
  },
  {
    "MOLECULE": "CC(C)C[C@@H]1NC(=O)[C@@H](C(C)C)NC(=O)C(C)(C)NC(=O)[C@@H](CC(=O)O)NC(=O)[C@@H](Cc2c[nH]c3ccccc23)NC1=O [Example 61, cyclo(-DTrp-DAsp-Aib-DVal-Leu-)] (cyclo([Aib][dV]L[dW][dD]))",
    "TARGET OR TEST SYSTEM": "endothelin receptor (membrane of smooth muscle tissue of porcine aorta) (Sus scrofa)",
    "MEASURED NUMBER": 66
  },
  {
    "MOLECULE": "CC(C)C[C@@H]1NC(=O)[C@@H](C(C)C)NC(=O)[C@H](CCCN)NC(=O)[C@@H](CC(=O)O)NC(=O)[C@@H](Cc2c[nH]c3ccccc23)NC1=O [Example 20, cyclo(-DTrp-DAsp-Orn-DVal-Leu-)] (cyclo(L[dW][dD][Orn][dV]))",
    "TARGET OR TEST SYSTEM": "endothelin receptor (membrane of smooth muscle tissue of porcine aorta) (Sus scrofa)",
    "MEASURED NUMBER": 65
  }
]
